ASSAY COMMENT: NCI Yeast Anticancer Drug Screen. Data for the bub3 strain (AID 167)
CONDITION NOTES: S. cerevisiae bub3 mutant strain, at 50.0 µM
This is part of a sample that, as a whole, favours compounds with a hit. Of some 79,000 tested, about 15% had one in any assay. The source made the active and inactive calls. No stated cut-off is given here; in the data, active means growth inhibition above about 70%; inactive means the rest.
Choose the fitting class; nothing outside T for active, F for inactive is accepted.

See these solved cases before continuing.
MOLECULE: Cc1ccc(S(=O)(=O)Nc2cccc3cccnc23)cc1
ANSWER LABEL: F
--
MOLECULE: O=[N+]([O-])c1ccc(C(c2c[nH]c3ccccc23)c2c[nH]c3ccccc23)cc1
ANSWER LABEL: T

Look up the recorded call for O=C1C=C(NCCc2cc(Br)c(O)c(Br)c2)C(=O)c2ncccc21 in this test.
T

Then OC(CC(O)(C(F)(F)F)C(F)(F)F)c1ccc(C(O)CC(O)(C(F)(F)F)C(F)(F)F)cc1 (configuration not stated) ?
T

Then CC(C)NCCCNc1c2ccccc2nc2cccc([N+](=O)[O-])c12 ?
F

Then O=C(CN(c1ccccc1)c1ccccc1)n1nnc2ccccc21 ?
T

Then COc1cc(C2C3=C(COC3=O)Oc3cc4c(cc32)OCO4)cc(OC)c1O (configuration not stated) ?
F
